- TEST TARGET: T1, lecithin:cholesterol acyltransferase (LCAT), purified from human plasma (human, UniProt P04180 25-440)
- T1 sequence (looked up): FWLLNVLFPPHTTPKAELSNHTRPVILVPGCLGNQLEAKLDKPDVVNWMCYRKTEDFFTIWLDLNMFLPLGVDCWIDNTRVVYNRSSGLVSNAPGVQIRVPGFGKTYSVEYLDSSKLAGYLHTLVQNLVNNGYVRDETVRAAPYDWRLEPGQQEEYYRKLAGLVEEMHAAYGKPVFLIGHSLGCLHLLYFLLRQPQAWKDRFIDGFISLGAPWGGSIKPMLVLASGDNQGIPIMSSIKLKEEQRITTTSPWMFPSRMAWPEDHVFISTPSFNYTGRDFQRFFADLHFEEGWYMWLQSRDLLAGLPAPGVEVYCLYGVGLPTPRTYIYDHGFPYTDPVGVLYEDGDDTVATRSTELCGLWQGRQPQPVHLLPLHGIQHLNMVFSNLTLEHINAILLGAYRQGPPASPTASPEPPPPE
- EXPERIMENT DESCRIPTION: cell-based or functional assay
Non-standard residues stand in square brackets, D forms with d. No end group written: not given here. Aib = CC(C)(N)C(=O)O
MEASURED ENDPOINT: ACTIVITY (%) LCAT

Example entries begin here.
PVLDLFRELLNEGLEALKQKLK [peptide 8]    83
GIKKFLGSIWKFIKAFVG [peptide 242]    7
PVLDLFREKLNEELEALKQKLK [peptide 106]    0

I: [dP][dV][dL][dD][dE][dF][dR][dE][dK][dL][dN][dE][Aib][dL][dE][dA][dL][dK][dQ][dK][dL][dK] [peptide 44]
II: DWLKAFYDKVAEKLKEAF [peptide 244]
// task: argmin of ACTIVITY (%) LCAT over [ I , II ] Indicate which entry you chose by stating its label.
II

A: PVLELFKELLEELKQKLK [peptide 216]
B: PVLELFERLLDELLNALQKKLK [peptide 86]
C: [dP][dV][dL][dD][dL][dF][dR][dE][dL][dL][dN][dE][dL][dL][dE][dA][dL][dK][dQ][dK][dL][dK] [peptide 100]
D: PLFRELLNELLEALKQKLK [peptide 55]
E: PVLDEFREKLNEELEALWQKLK [peptide 121]
Sort these binders on ACTIVITY (%) LCAT so the largest reading comes first. Form entry: ranked labels (order as requested).
A, D, B, C, E
(A: 35%, D: 19%, B: 7%, C: 2%, E: 0%)
